- System: MDA-N
- experiment: NCI tumour cell line growth inhibition, 48 h
Active and inactive are the calls of the source. Rule as the data show it: active = GI50 up to about 1.1 µM and inactive = higher. Residues, ends and D or L forms follow the SMILES beside them. *: point of attachment. Boc = CC(C)(C)OC(=O)*; OBn = c1ccc(CO*)cc1
measured.quantity: GI50

molecule	measured.quantity	data.value
CCc1nn(CN2CCN(C)CC2)c(=S)n1/N=C\c1ccc(-c2ccc([N+](=O)[O-])cc2)o1	GI50	94 µM (inactive)
CN(C)C/C=C(/c1ccc(Br)cc1)c1cccnc1	GI50	38.3 µM (inactive)
Cc1ccc([N+](=O)[O-])cc1S(=O)(=O)Nc1ccc(C2=NNC(c3cccs3)C2)cc1 (stereo unspecified)	GI50	34.9 µM (inactive)
COC(=O)C1CCC(=O)N1CN(C(C)=O)c1cc(OC)ccc1OC (stereo unspecified)	GI50	> 100 µM (inactive)
O=C(n1c(=O)n(-c2ccc([N+](=O)[O-])cc2)c(=O)n1C(=O)C(Cl)(Cl)Cl)C(Cl)(Cl)Cl	GI50	> 100 µM (inactive)
COc1c(-c2cc(C)c(Cl)c(=O)[nH]2)c(O)c(OC)c2occc12	GI50	> 100 µM (inactive)
Cc1ccsc1C(=O)C(CC(=O)c1cccs1)c1ccsc1 (stereo unspecified)	GI50	64.6 µM (inactive)
O=C1Sc2cc3ccccc3cc2C(=O)Sc2ccc(Br)cc21	GI50	4.51 µM (inactive)
N#CC(=N)c1ncn(-c2ccccc2N)c1N	GI50	> 100 µM (inactive)
Cn1c(=O)c(Br)c(C=O)n(CCO[N+](=O)[O-])c1=O	GI50	4.23 µM (inactive)
C=CC(C)(O)CCC1C(=C)C(O)CC2C(C)(C)CCCC12C (stereo unspecified)	GI50	20.4 µM (inactive)
Cc1c(/N=C\c2ccc(N(CCC#N)CCC#N)cc2)c(=O)n(-c2ccccc2)n1C	GI50	> 100 µM (inactive)
COc1ccc(NC(=S)N/N=C(\C)c2nc3cccnc3[nH]2)cc1	GI50	11.7 µM (inactive)
CSC1NC(c2ccccc2)=C(C#N)C(=O)N1C1OCC(OC(C)=O)C(OC(C)=O)C1OC(C)=O (stereo unspecified)	GI50	> 100 µM (inactive)
CC(=O)Nc1ccc2cc3c(nc2n1)c1cccnc1n3S(=O)(=O)c1ccccc1	GI50	> 100 µM (inactive)
CC(=O)O/C=C\OC1CCCC1(c1ccccc1)c1ccccc1 (stereo unspecified)	GI50	2.31 µM (inactive)
COc1ccc2c(C)cc(N/N=C/c3sccc3C)nc2c1	GI50	14.3 µM (inactive)
O=C(CC(C(=O)c1ccsc1)c1cccs1)c1ccccc1 (stereo unspecified)	GI50	> 100 µM (inactive)
Cc1ccc2c(c1)C(=O)C1(Cc3ccccc3C1=O)C2 (stereo unspecified)	GI50	> 100 µM (inactive)
OCC1OC(n2nc(-c3ccccc3)nc2-c2cnccn2)C(O)C1O (stereo unspecified)	GI50	> 100 µM (inactive)
C[C@@H](c1ccccc1)n1c(N)c(C#N)c2ccc([N+](=O)[O-])cc2c1=O	GI50	23.1 µM (inactive)
O=C(/C=C\c1ccsc1)c1ccccc1	GI50	12.4 µM (inactive)
N=C(N)N/N=C/c1c(-c2ccc(Cl)c(Cl)c2Cl)nc2sccn12	GI50	1.59 µM (inactive)
COc1ccc([C@H]2C=[N+]([O-])O[C@H](OC3CCCC3)[C@@H]2OC(C)=O)cc1OC	GI50	37.8 µM (inactive)
CC(C)C(NC(=O)C(Cc1ccccc1)NC(=O)OC(C)(C)C)C(=O)NCC(=O)OCc1ccccc1 (stereo not drawn) (Boc-Phe-Val-Gly-OBn; configuration not given here)	GI50	19.4 µM (inactive)
CC1=CC[C@@H]2[C@@H](CC[C@@]2(C)O)C(C)(C)[C@H]1CC[C@@H]1[C@@]2(C)CC[C@@H](O)C(C)(C)O[C@@H]2CC[C@]1(C)O	GI50	22.5 µM (inactive)
